# protocolDescription: Acute toxicity administered intraperitoneally was determined in male rats
# Format: organism-based
# reportedConditions: rat, in vivo, ip
readoutName: LD50 (mg/kg)
I only need the number, in mg/kg, no unit after it.

q: Recorded LD50 for COc1cc(C)c2c(Oc3cccc(C(F)(F)F)c3)c(OC)cc(NC(C)CCCN)c2n1 (stereo unspecified) [TAFENOQUINE] , please?
a: 102

* * *

# protocolDescription: Acute toxicity administered orally was determined in female rats
# Format: organism-based
# reportedConditions: rat, in vivo, po
readoutName: LD50 (mg/kg)
I only need the number, in mg/kg, no unit after it.

q: Recorded LD50 for COc1cc(C)c2c(Oc3cccc(C(F)(F)F)c3)c(OC)cc(NC(C)CCCN)c2n1 (stereo unspecified) [TAFENOQUINE] , please?
a: 416

* * *

# protocolDescription: Acute toxicity administered intraperitoneally was determined in female rats
# Format: organism-based
# reportedConditions: rat, in vivo, ip
readoutName: LD50 (mg/kg)
I only need the number, in mg/kg, no unit after it.

q: Recorded LD50 for COc1cc(C)c2c(Oc3cccc(C(F)(F)F)c3)c(OC)cc(NC(C)CCCN)c2n1 (stereo unspecified) [TAFENOQUINE] , please?
a: 71

* * *

# protocolDescription: Acute toxicity administered intra peritoneally was determined in 85 female rats
# reportedConditions: rat, in vivo, ip
readoutName: LD50 (mg/kg)
I only need the number, in mg/kg, no unit after it.

q: Recorded LD50 for COc1cc(NC(C)CCCN)c2nccc(C)c2c1Oc1cccc(C(F)(F)F)c1 (stereo unspecified) , please?
a: 54

* * *

# protocolDescription: Acute toxicity administered orally was determined in 74 male rats
# reportedConditions: rat, in vivo, po
readoutName: LD50 (mg/kg)
I only need the number, in mg/kg, no unit after it.

q: Recorded LD50 for COc1cc(NC(C)CCCN)c2nccc(C)c2c1Oc1cccc(C(F)(F)F)c1 (stereo unspecified) , please?
a: 256
